assay: Oral bioavailability in mouse at 25 mg/kg, po measured after 30 mins; type: ADME, organism-based; details: in vivo, read-out: Drug uptake
Test readout: concentration at 0.5 h

In: Look up concentration at 0.5 h for this compound: `NNC(=O)c1ccncc1`
Out: > 13100 ng/mL
